experiment: small-molecule microarray binders of probe aDKK1, primary screen, biochemical, biotinylated probe, 635/667 nm fluorescence (AID 1099); conditions: higher = more signal;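 note: score merges 667nm spot fluorescence with signal to noise across triplicate slides; reference of the scale not given here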
Assign true (1) to entries whose composite z-score meets or exceeds 0.7; assign false (0) to the rest.

| SMILES STRING | CLASSIFICATION |
| --- | --- |
| C=C(COC)/C(=C/C[C@H](OC(C)=O)c1cccc(OCCO)c1)c1cc(C(=O)OC)ccc1OC | false (0) |
| CCCCC(=C=CC[C@H](O)c1cccc(OCCO)c1)CCO | false (0) |
| COc1ccc([Si](C)(C)[C@@H]2[C@@H](CCn3cc([C@H](O)c4ccccc4)nn3)O[C@]3(C(=O)N(C)c4c(Br)cc(C)cc43)[C@H]2C)cc1 | false (0) |
| O=C(O)[C@H]1C[C@H]2C(=O)NCC(=O)N2[C@H]1c1cccc(OCCO)c1 | true (1) |
| COCCOC(=O)N1C(=O)[C@@]2(c3ccccc31)[C@H](C(=O)Nc1nc3ccccc3s1)[C@H]1C(=O)O[C@H](c3ccccc3)[C@H](c3ccccc3)N1[C@@H]2c1ccc(O)cc1 | false (0) |
| [N-]=[N+]=NCc1ccccc1C[C@]1(C(=O)NCc2ccccc2)N=C(c2ccc(OCCCO)cc2)O[C@H]1c1ccccc1 | true (1) |
| COCCCNC(=O)[C@@]1(Cc2ccccc2)N=C(c2ccc(OCCCO)cc2)O[C@H]1c1ccccc1N=[N+]=[N-] | true (1) |
